- Protocol: Abiotic in vitro digestion (salivary, gastric, duodenal steps) of affron® tablets, HPLC-PAD/MS quantification
- Format: in vitro ADME
- Study Conditions: affron® before in vitro digestion; mean ± SD
Marks after values point to notes of the source that are not given here.
Reported Property: Bioactive molecule content, initial sample

Study these solved cases before continuing.
| Compound | Measured Result |
| --- | --- |
| CC(/C=C/C=C(\C)C(=O)O)=C\C=C\C=C(C)\C=C\C=C(/C)C(=O)O | 0.03 ± 0.01^a %, dry basis |
| CC1=C(C=O)C(C)(C)CC=C1 | 0.04 ± 0.01^a %, dry basis |
| CC(/C=C/C=C(\C)C(=O)O[C@@H]1O[C@H](CO[C@@H]2O[C@H](CO)[C@@H](O)[C@H](O)[C@H]2O)[C@@H](O)[C@H](O)[C@H]1O)=C\C=C\C=C(C)\C=C\C=C(/C)C(=O)O[C@@H]1O[C@H](CO[C@@H]2O[C@H](CO)[C@@H](O)[C@H](O)[C@H]2O)[C@@H](O)[C@H](O)[C@H]1O (relative stereo) [t-crocin-4, trans-crocin-4] | 1.66 ± 0.04^b %, dry basis |

Okay, now this compound:
In: Return reported Bioactive molecule content, initial sample. Input compound: CC1=C(C=O)C(C)(C)CC(O[C@@H]2O[C@H](CO)[C@@H](O)[C@H](O)[C@H]2O)C1 (stereo partly shown)
Out: 3.21 ± 0.07^c %, dry basis

###

- Protocol: Abiotic in vitro digestion (salivary, gastric, duodenal steps) of affron® tablets, HPLC-PAD/MS quantification
- Format: in vitro ADME
- Study Conditions: after whole in vitro digestion of affron® tablets, relative to initial content
Reported Property: Bioaccessibility (%)

Study these solved cases before continuing.
| Compound | Uom | Bioaccessibility |
| --- | --- | --- |
| CC1=C(C=O)C(C)(C)CC(O[C@@H]2O[C@H](CO)[C@@H](O)[C@H](O)[C@H]2O)C1 (stereo partly shown) | % | 81.31 |
| CC(/C=C/C=C(\C)C(=O)O[C@@H]1O[C@H](CO[C@@H]2O[C@H](CO)[C@@H](O)[C@H](O)[C@H]2O)[C@@H](O)[C@H](O)[C@H]1O)=C\C=C\C=C(C)\C=C\C=C(/C)C(=O)O[C@@H]1O[C@H](CO[C@@H]2O[C@H](CO)[C@@H](O)[C@H](O)[C@H]2O)[C@@H](O)[C@H](O)[C@H]1O (relative stereo) [t-crocin-4, trans-crocin-4] | % | 12.05 |

P = CC(/C=C/C=C(\C)C(=O)O)=C\C=C\C=C(C)\C=C\C=C(/C)C(=O)O
Q = CC1=C(C=O)C(C)(C)CC=C1
In: Just curious, which one has the larger Bioaccessibility reading, P or Q ? Lab note: record the label of whichever item you select.
Out: Q

###

- Protocol: Single-dose pharmacokinetics of crocetin in plasma after oral affron® tablets in healthy volunteers
- Format: in vivo, human
- Study Conditions: both sexes, plasma; crocetin after oral affron® tablets, human; dose not separated; read-out: Plasmatic half-life (converted)
Reported Property: half-life (min)
Answer with a number only, understood to be in min.

In: Return reported half-life. Input molecule: CC(/C=C/C=C(\C)C(=O)O)=C\C=C\C=C(C)\C=C\C=C(/C)C(=O)O [Crocetin]
Out: 51
